assay: NCI Yeast Anticancer Drug Screen. Data for the mlh1 rad18 strain (AID 175); conditions: S. cerevisiae mlh1 rad18 strain growth inhibition; at 50.0 µM
This is part of a sample that, as a whole, favours compounds with a hit. Of some 79,000 tested, about 15% had one in any assay. The source made the active and inactive calls. Rule as the data show it: active = growth inhibition above about 70%; inactive = the rest.
The reply should name one outcome from active, inactive

# example entries with known answers
molecule: CC1=C(N2CC2)C(=O)c2ccccc2C1=O
cat: inactive
//
molecule: COc1c(O)c2c(c3cc(C(=O)N4CCc5c4c(O)c(OC)c4[nH]c(C(=O)N6CC7CC78C6=CC(=O)c6[nH]cc(C)c68)cc54)[nH]c13)CCN2C(N)=O (stereo not given)
cat: active
//
molecule: O=C(O)C(O)(c1ccccc1)C1(O)CCCCC1 (stereo not given)
cat: inactive
//
molecule: C/C(=C\c1ccc2c(c1)OCO2)[N+](=O)[O-]
cat: active

What is the recorded call for this molecule in the test? CC(C(=O)C1CCCCC1)[n+]1ccccc1 (stereo not given)
inactive

What is the recorded call for this molecule in the test? CCC[CH2][Pb]([CH2]CCC)([O]C(C)=O)[O]C(C)=O
active

What is the recorded call for this molecule in the test? CCOP(=O)(OCC)/C(C#N)=C/c1cccc(C)c1
inactive

What is the recorded call for this molecule in the test? Cc1c(N)nc([C@H](CC(N)=O)NC[C@H](N)C(N)=O)nc1C(=O)N[C@H](C(=O)N[C@H](C)[C@@H](O)[C@H](C)C(=O)N[C@H](C(=O)NCCc1nc(-c2nc(C(=O)NCCC[S+](C)C)cs2)cs1)[C@@H](C)O)C(OC1OC(CO)C(O)C(O)C1OC1OC(CO)C(O)C(OC(N)=O)C1O)c1cnc[nH]1 (stereo not given in full)
active

What is the recorded call for this molecule in the test? Nc1nc(N)c(-c2ccc(Cl)c(Cl)c2)c(CCc2ccc(CNC(=O)c3ccc(S(=O)(=O)F)cc3)cc2)n1
active

What is the recorded call for this molecule in the test? C=C(C)C(=O)OC1CCC2(C)C(CCC3C2CCC2(C)C(c4ccc(=O)oc4)CC4OC432)C1 (stereo not given)
inactive

---

experiment: NCI Yeast Anticancer Drug Screen. Data for the rad50EPP+ strain (AID 151);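 also: 0% = growth of vehicle-treated control cultures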; settings: S. cerevisiae rad50 mutant strain, at 3.7 µM
About 79,000 compounds went through this panel and 15% of them were active in at least one assay; those are over-represented in the sample as a whole. Calls of active or inactive are those of the source. Cut-off read from the data, not from the text of the source: active = growth inhibition above about 70%; inactive = the rest.
The reply should name one outcome from T for active, F for inactive

# example entries with known answers
compound: Cc1c2ccccc2cc2ccccc12
cat: T
--
compound: CCC1(OC(=O)CN)C(=O)OCc2c1cc1n(c2=O)Cc2cc3ccccc3nc2-1 (stereo unspecified)
cat: F
--
compound: O=c1oc2ccccc2c(O)c1C(c1ccc2c(c1)Cc1ccccc1-2)c1c(O)c2ccccc2oc1=O
cat: F

What is the recorded call for this compound in the test? CCN(CCCl)c1cc(CN(C)C)cc(NC(=O)c2ccc(C(=O)Nc3cc(CN(C)C)cc(N(CC)CCCl)c3)cc2)c1
F

What is the recorded call for this compound in the test? CC[C@]1(O)CC(OC2CC(N(C)C)C(O)C(C)O2)c2c(cc3c(c2O)C(=O)c2c(O)cccc2C3=O)[C@@H]1C(=O)OC (stereo partly specified)
F

What is the recorded call for this compound in the test? CN(N=O)C(=O)NNC(=O)N(C)N=O
F

What is the recorded call for this compound in the test? Oc1cccc2cccnc12
T

What is the recorded call for this compound in the test? CN(CCc1ccc(Br)cc1)CCN1CCCCC1
F

What is the recorded call for this compound in the test? CCCN(CCC)c1c([N+](=O)[O-])cc(S(N)(=O)=O)cc1[N+](=O)[O-]
F

What is the recorded call for this compound in the test? O=C(O)C1C2C=CC(C2)C1c1ccccc1 (stereo unspecified)
F

What is the recorded call for this compound in the test? Cc1cc[n+](C2=C(Nc3cccc(C(F)(F)F)c3)C(=O)c3ccccc3C2=O)cc1
F

---

experiment: NCI Yeast Anticancer Drug Screen. Data for the wt1 strain (AID 149);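 also: 0% = growth of vehicle-treated wt1 cultures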; conditions: S. cerevisiae wt1 strain (SPY 50644) growth inhibition; at 3.7 µM; hits give high values
This is part of a sample that, as a whole, favours compounds with a hit. Of some 79,000 tested, about 15% had one in any assay.
growth inhibition by entry:
Number only, in %; omit the unit.

compound: C/C(=N\N=C(N)N)C(CN1CCOCC1)C(c1ccccc1)c1c(O)c2ccccc2oc1=O (stereo not given)
uom: %
growth inhibition: -2

compound: CC[C@]1(O)CC(OC2CC(N(C)C)C(O)C(C)O2)c2c(cc3c(c2O)C(=O)c2c(O)cccc2C3=O)[C@@H]1C(=O)OC (stereo not given in full)
uom: %
growth inhibition: -4

compound: CCc1cccc(C(C)C)c1NC1=C([n+]2ccc(C)cc2)C(=O)c2ccccc2C1=O
uom: %
growth inhibition: -2

Recorded growth inhibition of O=C(O)C1C2c3ccccc3C(c3ccccc32)C1C(=O)O (stereo not given) , please.
-3

Recorded growth inhibition of CN(CCc1ccc(Br)cc1)CCN1CCCCC1 , please.
16

---

growth inhibition by entry:
assay: NCI Yeast Anticancer Drug Screen. Data for the mlh1 rad18 strain (AID 175); conditions: S. cerevisiae mlh1 rad18 strain growth inhibition; at 50.0 µM; hits give high values
About 79,000 compounds went through this panel and 15% of them were active in at least one assay; those are over-represented in the sample as a whole.
Number only, in %; omit the unit.

Recorded growth inhibition of CC(C)O.CC(C)O.OCCN(CCO)CCO.OCCN(CCO)CCO.[Ti+2] , please.
44.2

---

test: NCI Yeast Anticancer Drug Screen. Data for the mec2-1 strain (AID 157); settings: S. cerevisiae mec2-1 strain, at 50.0 µM, hits give high values
The panel holds about 79,000 compounds, 15% with a hit somewhere; the sample as a whole holds those more often.
// label = 1.0 if growth inhibition is not less than 30%, otherwise 0.0

# example entries with known answers
molecule: CC[C@](C)(O)C(=O)O[C@H]1C(=O)O[C@@H]2C[C@H]3C(C)=CC(=O)[C@@H](O)[C@]3(C)[C@H]3[C@@]4(O)OC[C@]32[C@@H]1[C@@H](C)[C@H]4O
cat: 1.0
//
molecule: CC(O)C(=O)O.CC(O)C(=O)O.[Ni] (stereo not given)
cat: 0.0
//
molecule: c1cc2c(cc1NC1=NCCO1)CCCC2
cat: 0.0

Confirm if growth inhibition reported for the molecule CCOc1cc(/C=C/[N+](=O)[O-])ccc1O is 30% or above.
1.0

---

assay: NCI Yeast Anticancer Drug Screen. Data for the mec2-1 strain (AID 157); settings: S. cerevisiae mec2-1 strain, at 11.0 µM, hits give high values
Compounds without any hit were thinned out: in the full panel of roughly 79,000, 15% have a hit.
growth inhibition by entry:
Number only, in %; omit the unit.

molecule: c1cc2c(cc1C1OC[C@H]3[C@@H](c4ccc5c(c4)OCO5)OC[C@@H]13)OCO2 (some centres undefined)
uom: %
growth inhibition: -4

molecule: COc1ccc(OC)c(/C=C/[N+](=O)[O-])c1
uom: %
growth inhibition: 7

molecule: CC1(Cl)CC(C)(/C=C/Cl)C(Cl)CC1Cl (centres undefined)
uom: %
growth inhibition: 6

molecule: COC1C(O)C(C)OC(OC2C(Oc3cccc4c(O)c5c(=O)oc6ccc(C)c7c(=O)oc(c34)c5c67)OC(C)C(O)C2O)C1O (centres undefined)
uom: %
growth inhibition: 9

molecule: O=P(CCCCP(=O)(c1ccccc1)c1ccccc1)(c1ccccc1)c1ccccc1.[Cl][Sn]([Cl])([c]1ccccc1)[c]1ccccc1
uom: %
growth inhibition: 70

Recorded growth inhibition of CC[C@]1(O)CC(OC2CC(N(C)C)C(O)C(C)O2)c2c(cc3c(c2O)C(=O)c2c(O)cccc2C3=O)[C@@H]1C(=O)OC (some centres undefined) , please.
7

Recorded growth inhibition of O=C1c2ccccc2C(=O)C(Cl)C1Cl (centres undefined) , please.
90

Recorded growth inhibition of O=C1C=C(CN(CCCl)CCCl)C(=O)C=C1CN(CCCl)CCCl , please.
-3

Recorded growth inhibition of COC(COC(=O)N1CCN(C=O)CC1)C1=C(N2CC2)C(=O)C(C)=C(N2CC2)C1=O (centres undefined) , please.
6

---

test: NCI Yeast Anticancer Drug Screen. Data for the mec2-1 strain (AID 157); settings: S. cerevisiae mec2-1 strain, at 100.0 µM
About 79,000 compounds went through this panel and 15% of them were active in at least one assay; those are over-represented in the sample as a whole. Calls of active or inactive are those of the source. Cut-off read from the data, not from the text of the source: active = growth inhibition above about 70%; inactive = the rest.
The reply should name one outcome from 1 (active), 0 (inactive)

# example entries with known answers
molecule: O=C(O)CCCOc1cc(Cl)c(Cl)cc1Cl
cat: 1
--
molecule: CCCCN(CCCC)CC(C(C)=O)C(c1ccccc1)c1c(O)c2ccccc2oc1=O (configuration not stated)
cat: 0
--
molecule: O=C1c2ccccc2C(=O)C(Cl)C1Cl (configuration not stated)
cat: 1

What is the recorded call for this molecule in the test? Oc1ccc2nc3ccccc3nc2c1
1

What is the recorded call for this molecule in the test? COC(=O)C1=C(C(=O)OC)SC2(S1)C(C(=O)OC)=C(C(=O)OC)Sc1c2ssc1=O
1

What is the recorded call for this molecule in the test? Cc1ccc2c(c1)C1(C)c3cc(C)ccc3SP1S2 (configuration not stated)
0

What is the recorded call for this molecule in the test? O=C(/C=C(\c1ccccc1)N1CC1)c1ccccc1
1

What is the recorded call for this molecule in the test? COc1cccc2c1C(=O)c1c(O)c3c(c(O)c1C2=O)C[C@@](O)(/C(C)=N\O)C[C@@H]3OC1CC(N)C(O)C(C)O1 (some centres not stated)
0

What is the recorded call for this molecule in the test? CN(N=O)C(=O)NNC(=O)N(C)N=O
1

What is the recorded call for this molecule in the test? C=CC[N+]12CN3CN(CN(C3)C1)C2
1

What is the recorded call for this molecule in the test? CCOP(=O)(CC(C)P(=O)(OCC)OCC)OCC.C[CH2][Sn]([Cl])([Cl])[CH2]C (configuration not stated)
1
